System: NCI/ADR-RES ovarian
test-protocol: NCI tumour cell line growth inhibition, 48 h; in the data active means GI50 below about 0.43 µM; inactive means the rest
Pick from active, inactive when you respond.

Example entries begin here.
CC(C)(C)c1ccc(Oc2nccc(-c3c(-c4ccc(F)cc4)ncn3C3CCNCC3)n2)cc1 ... inactive
Cc1cc(O)c(C(C)C)cc1S(=O)(=O)O (tested in a mixture with another compound) ... inactive
COc1ccc(-c2cn(-c3cc(OC)c(OC)c(OC)c3)c(SCc3ccccc3)n2)cc1OC ... inactive
C#Cc1c(F)ccc2cc(O)cc(-c3ncc4c(N5CC6CCC(C5)N6)nc(OC[C@@]56CCCN5C[C@H](F)C6)nc4c3F)c12 ... inactive
COc1cc([N+](=O)[O-])c(OC)cc1-c1nc2sc(Cl)cn2c1/C(N)=N/C(=N)N ... inactive
COc1ccc(-c2nc(-c3nc4ccc(OC)cc4[nH]3)c3ccccn23)cc1 ... inactive
C[C@H]1[C@H](C)CC[C@]2(CO)CC[C@]3(C)C(=CC[C@@H]4[C@@]5(C)CCCNC(C)(C)[C@@H]5CC[C@]43C)[C@H]12 ... inactive

Next up:
Q: Outcome logged for COc1cnc2c(c1)C(=O)c1c-2n(CCCn2ccnc2)c(=O)c2cc(F)ccc12 in this assay:
A: active
